Tested on: Escherichia coli TOP10
Assay: shrunken log2 fold change of peptide-encoding DNA abundance (4.5 h post-induction vs induction); higher = less antimicrobial activity (less host growth inhibition)
Details: time post-induction: 4.5 h; library: site-saturation at positions 5, 18, 19, 20
Assign class by shrunken log2 fold change: not lower than 0.09 means YES; lower than 0.09 means NO.

{"sequence-content": "RRIRWRPPRLPRPRPRPECCPRP", "cat": "YES"}
{"sequence-content": "RRIRRRPPRLPRPRPRPVQCPRP", "cat": "NO"}
{"sequence-content": "RRIRLRPPRLPRPRPRPESDPRP", "cat": "NO"}

I'd appreciate it if you could say whether "RRIRTRPPRLPRPRPRPCWGPRP" has shrunken log2 fold change at least equal to 0.09.
NO

Decide: shrunken log2 fold change of "RRIRSRPPRLPRPRPRPRHLPRP" >= 0.09?
NO

###

# shrunken log2 fold change per record follows
System: Escherichia coli TOP10
Test: shrunken log2 fold change of peptide-encoding DNA abundance (4.5 h post-induction vs induction); higher = less antimicrobial activity (less host growth inhibition)
Details: time post-induction: 4.5 h; library: site-saturation at positions 5, 18, 19, 20
Form field (numeric): enter value without unit.

{"sequence-content": "RRIRNRPPRLPRPRPRPWAAPRP", "quantity-kind": "shrunken log2 fold change", "numeric-value": -0.109}
{"sequence-content": "RRIRSRPPRLPRPRPRPWPIPRP", "quantity-kind": "shrunken log2 fold change", "numeric-value": 0.0295}
{"sequence-content": "RRIRSRPPRLPRPRPRPCEPPRP", "quantity-kind": "shrunken log2 fold change", "numeric-value": -1.02}
{"sequence-content": "RRIRNRPPRLPRPRPRPPNFPRP", "quantity-kind": "shrunken log2 fold change", "numeric-value": -0.0236}
{"sequence-content": "RRIRYRPPRLPRPRPRPCGRPRP", "quantity-kind": "shrunken log2 fold change", "numeric-value": -0.00865}
{"sequence-content": "RRIRGRPPRLPRPRPRPQTDPRP", "quantity-kind": "shrunken log2 fold change", "numeric-value": 0.381}
{"sequence-content": "RRIRYRPPRLPRPRPRPRPEPRP", "quantity-kind": "shrunken log2 fold change", "numeric-value": 0.254}
{"sequence-content": "RRIRCRPPRLPRPRPRPVQMPRP", "quantity-kind": "shrunken log2 fold change", "numeric-value": 0.239}
{"sequence-content": "RRIRFRPPRLPRPRPRPTSSPRP", "quantity-kind": "shrunken log2 fold change", "numeric-value": -0.0359}
{"sequence-content": "RRIRHRPPRLPRPRPRPPWYPRP", "quantity-kind": "shrunken log2 fold change", "numeric-value": -0.232}

The sequence "RRIRTRPPRLPRPRPRPEMQPRP" , tested on Escherichia coli TOP10, showed shrunken log2 fold change of -0.00136

Record "RRIRCRPPRLPRPRPRPTIQPRP" ; system Escherichia coli TOP10; shrunken log2 fold change = -0.508

For the sequence "RRIRTRPPRLPRPRPRPGIQPRP" , the measured shrunken log2 fold change on Escherichia coli TOP10 was 0.131

# value of shrunken log2 fold change, Escherichia coli TOP10, item "RRIRQRPPRLPRPRPRPRFWPRP" = 0.23

# shrunken log2 fold change measured on Escherichia coli TOP10 for item "RRIRPRPPRLPRPRPRPKMMPRP" = -0.032

###

System: Escherichia coli TOP10
Experiment: shrunken log2 fold change of peptide-encoding DNA abundance (4.5 h post-induction vs induction); higher = less antimicrobial activity (less host growth inhibition)
Settings: time post-induction: 4.5 h; library: site-saturation at positions 5, 18, 19, 20
quantity-kind: shrunken log2 fold change
Just the number, please, no unit attached.

{"sequence-content": "RRIRKRPPRLPRPRPRPWGKPRP", "shrunken log2 fold change": 0.0646}
{"sequence-content": "RRIRHRPPRLPRPRPRPVYAPRP", "shrunken log2 fold change": -0.375}
{"sequence-content": "RRIRWRPPRLPRPRPRPYKRPRP", "shrunken log2 fold change": -0.977}
{"sequence-content": "RRIRYRPPRLPRPRPRPSNGPRP", "shrunken log2 fold change": 0.015}
{"sequence-content": "RRIRTRPPRLPRPRPRPLRTPRP", "shrunken log2 fold change": 0.26}
{"sequence-content": "RRIRSRPPRLPRPRPRPDGHPRP", "shrunken log2 fold change": -0.0734}

Form field shrunken log2 fold change, entry "RRIRMRPPRLPRPRPRPKSKPRP" : 0.566

sequence "RRIRDRPPRLPRPRPRPHCSPRP" , shrunken log2 fold change observed: 0.0218

Entry under test: "RRIRHRPPRLPRPRPRPRPAPRP" . Its shrunken log2 fold change was 0.479

# sequence "RRIRYRPPRLPRPRPRPNTNPRP" ; its shrunken log2 fold change = -1.09

Documented shrunken log2 fold change of "RRIRARPPRLPRPRPRPDSNPRP" : 0.179

Field shrunken log2 fold change (entry "RRIRLRPPRLPRPRPRPAGMPRP" ) reads 0.213

###

shrunken log2 fold change for assorted sequences
Test system: Escherichia coli TOP10
Assay: shrunken log2 fold change of peptide-encoding DNA abundance (4.5 h post-induction vs induction); higher = less antimicrobial activity (less host growth inhibition)
Conditions: time post-induction: 4.5 h; library: site-saturation at positions 5, 18, 19, 20

{"sequence-content": "RRIRDRPPRLPRPRPRPKTSPRP", "quantity-kind": "shrunken log2 fold change", "result": 0.0412}
{"sequence-content": "RRIRWRPPRLPRPRPRPDWEPRP", "quantity-kind": "shrunken log2 fold change", "result": 0.229}
{"sequence-content": "RRIRERPPRLPRPRPRPAKLPRP", "quantity-kind": "shrunken log2 fold change", "result": -0.0209}
{"sequence-content": "RRIRQRPPRLPRPRPRPQAQPRP", "quantity-kind": "shrunken log2 fold change", "result": 0.0471}
{"sequence-content": "RRIRFRPPRLPRPRPRPKWPPRP", "quantity-kind": "shrunken log2 fold change", "result": 0.27}

Entry "RRIRERPPRLPRPRPRPLQQPRP" , shrunken log2 fold change reported as 0.0643

Sure, the documented shrunken log2 fold change for "RRIRVRPPRLPRPRPRPDWNPRP" is -0.343

// shrunken log2 fold change lookup, sequence = "RRIRLRPPRLPRPRPRPVADPRP" , result: 0.0131

###

The reader will find reported shrunken log2 fold change values listed item by item below.
Tested on: Escherichia coli TOP10
Experiment: shrunken log2 fold change of peptide-encoding DNA abundance (4.5 h post-induction vs induction); higher = less antimicrobial activity (less host growth inhibition)
Conditions: time post-induction: 4.5 h; library: site-saturation at positions 5, 18, 19, 20
Would you mind answering with just the numeric figure?

// below: answered sequences
{"sequence-content": "RRIRKRPPRLPRPRPRPNRFPRP", "assayed-target": "Escherichia coli TOP10", "shrunken log2 fold change": -0.0658}
{"sequence-content": "RRIRNRPPRLPRPRPRPAAHPRP", "assayed-target": "Escherichia coli TOP10", "shrunken log2 fold change": -0.00675}
{"sequence-content": "RRIRVRPPRLPRPRPRPRMAPRP", "assayed-target": "Escherichia coli TOP10", "shrunken log2 fold change": 0.199}

The sequence "RRIRPRPPRLPRPRPRPMRGPRP" , when measured on Escherichia coli TOP10, yielded shrunken log2 fold change of 0.887

The sequence "RRIRIRPPRLPRPRPRPCMHPRP" , when measured on Escherichia coli TOP10, yielded shrunken log2 fold change of -0.171

Fill in: Escherichia coli TOP10 shrunken log2 fold change for "RRIRDRPPRLPRPRPRPGLDPRP" = 0.0981

The value of shrunken log2 fold change recorded for "RRIRERPPRLPRPRPRPHCFPRP" when tested on Escherichia coli TOP10 reads 0.0259

I looked up "RRIRRRPPRLPRPRPRPHKCPRP" and its shrunken log2 fold change for Escherichia coli TOP10 was -0.346

Entry "RRIRGRPPRLPRPRPRPSLTPRP" : shrunken log2 fold change on Escherichia coli TOP10 = 0.78

###

Test system: Escherichia coli TOP10;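 note: peptides expressed intracellularly from a pBAD plasmid library in pooled LB shake-flask culture, induced with 0.3% L-arabinose, DNA abundance read by NGS, three biological replicates, DESeq2 with apeglm shrinkage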
Assay: shrunken log2 fold change of peptide-encoding DNA abundance (4.5 h post-induction vs induction); higher = less antimicrobial activity (less host growth inhibition)
Details: time post-induction: 4.5 h; library: site-saturation at positions 5, 18, 19, 20
quantity-kind: shrunken log2 fold change
Kindly provide the number alone.

Please review the entries below; each comes with its answer.
{"sequence-content": "RRIRGRPPRLPRPRPRPEKVPRP", "numeric-value": 0.417}
{"sequence-content": "RRIRWRPPRLPRPRPRPHMWPRP", "numeric-value": -0.138}
{"sequence-content": "RRIRFRPPRLPRPRPRPNRGPRP", "numeric-value": 0.149}
{"sequence-content": "RRIRIRPPRLPRPRPRPLCYPRP", "numeric-value": -1.07}
{"sequence-content": "RRIRLRPPRLPRPRPRPGFYPRP", "numeric-value": -0.102}
{"sequence-content": "RRIRMRPPRLPRPRPRPAIVPRP", "numeric-value": -0.161}

Now take the following sequence into account.
// field: shrunken log2 fold change; key: "RRIRRRPPRLPRPRPRPMKGPRP" ; value = 0.144
